Overview of reported bead binding signal (median fluorescence, fold over isotype control) across a group of binders:
# TESTED_SYSTEM: SARS-CoV Spike protein (SARS-CoV, UniProt P59594 14-1190)
QUANTITY_NAME: bead binding signal (median fluorescence, fold over isotype control)

{"BINDER": "antibody 328 (antibody, V domains shown) VH: QVQLQESGPGLVKPSGTLSLTCAVSGGSISSSNWWSWVRQPPGKGLEWIGEIYHSGSTNYNPSLKSRVTISVDNSKNQFSLKLSSVTAADTAVYYCARESVAAAGISYYYYGMDVWGQGTTVTVSS VL: DIQMTQSPSSLSASVGDRVTITCRASQGIRNDLGWYQQKPGKAPKRLIYAASSLQSGVPSRFSGSGSGTEFTLTVSGLQPEDFATYYCLQYNSSPLTFGGGTKVEIK", "NUMERIC_VALUE": 1.22}
{"BINDER": "antibody 320 (antibody, V domains shown) VH: QVQLVQSGAEVKKPGASVKVSCKASGYTFTSYGISWVRQAPGQGLEWMGWISAYNGNTNYAQKLQGRVTMTTDTSTRTAYMELRSLRSDDTAVYYCARVGCYYDSSGYSCAENFQHWGQGTLVTVSS VL: QSVLTQPPSVSGAPGQRVTISCTGSSSNIGAGYDVHWYQQLPGTAPKLLIYGNSNRPSGVPDRFSGSKSGTSASLAITGLQAEDEADYYCQSYDSSLSALFGGGTKLTVL", "NUMERIC_VALUE": 989}
{"BINDER": "antibody 323 (antibody, V domains shown) VH: QVQLVQSGAEVKKPGASVKVSCKVSGYTLTELSMHWVRQAPGKGLEWMGGFDPEDGETIYAQKFQGRVTMTEDTSTDTAYMELSSLRSEDTAVYYCATSTIFAPGGWFDPWGQGTLVTVSS VL: QSALTQPASVSGSPGQSITISCTGTSSDVGSYNLVSWYQQHPGKAPKLMIYEVSKRPSGVSNRFSGSKSGNTASLTISGLQAEDEADYYCCSYAGSTHYVFGTGTKVTVL", "NUMERIC_VALUE": 1.29}
